Where do the numbers come from? From patent US10294202B2.

tested on: lambsquarters; experiment: Test C pre-/postemergence herbicide test; format: in vivo, Chenopodium album; details: Postemergence; 125 g ai/ha; scale 0 to 100 (0 no effect, 100 complete control)
Attribute: Plant response rating, Lambsquarters
Please reply with the value in numeric form only.

>>> result_value("O=C1NCC(c2ccc(F)c(F)c2)C1C(=O)Nc1cccc(F)c1F (stereo not drawn)")
0
>>> result_value("O=C1NCC(c2ccc(F)cc2)C1C(=O)Nc1ccc(F)c(F)c1F (racemic)")
60

Check the records and state Plant response rating, Lambsquarters for O=C1NCC(c2ccc(Cl)c(F)c2)C1C(=O)Nc1cccc(F)c1F (stereo not drawn) 40

Check the records and state Plant response rating, Lambsquarters for "O=C1NC[C@H](c2cccc(C(F)(F)F)c2)[C@H]1C(=O)Nc1ccccc1F" 75

Check the records and state Plant response rating, Lambsquarters for Cc1ccccc1NC(=O)C1C(=O)NCC1c1cccc(C(F)(F)F)c1 (racemic) 0

Check the records and state Plant response rating, Lambsquarters for O=C1NCC(c2ccc(F)c(F)c2)C1C(=O)Nc1ccc(F)c(F)c1F (stereo not drawn) 5
